target: glucagon receptor (GCGR), primary cAMP assay cell line (human, UniProt P47871 26-477); assay: cell-based or functional assay
Sequence (P47871 26-477): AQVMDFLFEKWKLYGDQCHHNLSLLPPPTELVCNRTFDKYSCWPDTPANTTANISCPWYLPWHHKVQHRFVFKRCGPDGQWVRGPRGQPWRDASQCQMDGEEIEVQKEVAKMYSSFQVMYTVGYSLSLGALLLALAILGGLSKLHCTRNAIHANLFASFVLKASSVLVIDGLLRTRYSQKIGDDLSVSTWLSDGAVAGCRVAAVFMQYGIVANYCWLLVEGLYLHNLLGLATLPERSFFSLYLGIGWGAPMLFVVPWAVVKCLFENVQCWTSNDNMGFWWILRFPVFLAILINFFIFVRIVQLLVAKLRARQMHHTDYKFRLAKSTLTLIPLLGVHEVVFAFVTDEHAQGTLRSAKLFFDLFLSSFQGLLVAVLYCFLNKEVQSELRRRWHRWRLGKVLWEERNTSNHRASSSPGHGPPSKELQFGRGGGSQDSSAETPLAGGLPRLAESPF
Starred links: 1 amine or outer side, 2 acyl side, 3 side chain; linkers in the order of their positions; H or OH if unused. Non-standard residues stand in square brackets, D forms with d. Groups on a side chain read outwards from the residue. Primed or numbered codes have the meaning given here. No end group written: not given here. *: point of attachment. γGlu = O=C(O)[C@H](CCC(=O)[*:2])N[*:1]; αMeF = C[C@](N)(Cc1ccccc1)C(=O)O; αMeK = C[C@](N)(CCCCN)C(=O)O; Lauroyl = CCCCCCCCCCCC(=O)*; αMeS = C[C@](N)(CO)C(=O)O; PEG2′ = not defined here; Aib = CC(C)(N)C(=O)O
The binders listed here are annotated with their cAMP Primary assay EC50, n1.
Numeric only. Scale: nM

Looking up H[Aib]EGS[αMeF]TSDVSK([PEG2′-PEG2′-γGlu-Lauroyl])YLEGK([PEG2′-PEG2′-γGlu-Lauroyl])AA[αMeK]EFIK([PEG2′-PEG2′-γGlu-Lauroyl])FVVEGG-NH2 [SEQ ID NO: 444] , I found its cAMP Primary assay EC50, n1 recorded as 19.7

Looking up H[Aib]EGS[αMeF]TSDV[αMeS]SYK([PEG2′-PEG2′-γGlu-Lauroyl])EGEAA[αMeK]K([PEG2′-PEG2′-γGlu-Lauroyl])FIAK([PEG2′-PEG2′-γGlu-Lauroyl])VVEGG-NH2 [SEQ ID NO: 470] , I found its cAMP Primary assay EC50, n1 recorded as 20
